# area under concentration-response curve listing for each entry below
System: CU-ACC2
Experiment: area under concentration-response curve (viability) (AUC (a.u.)); higher = less active
Settings: 48 h
Give the value as a plain number.

Using known records, supply area under concentration-response curve for "N#Cc1cc(NC(=O)Nc2nnc(-c3ccncc3)s2)ccc1-c1cn[nH]c1"
529

Report measured area under concentration-response curve; entry is "CCOCc1nc2c(N)nc3ccccc3c2n1CC(C)(C)O"
562

Dear colleague, please send me the reported area under concentration-response curve for "Cc1cc(OCc2nnc(SC3CCCC3)n2-c2cccnc2)ccc1-c1ccc([S+](C)(=O)[O-])cc1" when you can.
324

Note area under concentration-response curve for the molecule shown: "CCOc1cc2ncc(C#N)c(Nc3ccc(F)c(Cl)c3)c2cc1NC(=O)/C=C/CN(C)C"
419

Check the records and state area under concentration-response curve for "Cc1c(F)cc(C(=O)NC2CC2)cc1-c1ccc(C(=O)NCC(C)(C)C)cn1"
427

Recall and state the measured area under concentration-response curve for "Cc1c(C(=O)Nc2cccc(C(F)(F)F)c2)cc(-c2ccccc2)n1CCCN1CCOCC1" .
610

Give the measured area under concentration-response curve for "COc1ccc2c(OCc3nnc4ccc(-c5ccccc5)nn34)ccnc2c1"
609

Give the reported area under concentration-response curve for this molecule. "COC(=O)N1CCN(Cc2cccc(NC(=O)Nc3ccc(C)nc3)c2F)CC1"
601

Quick one: give measured area under concentration-response curve for "O=C(c1ccc(N[S+](=O)([O-])c2cccc3cccnc23)cc1)N1CCN(CC2CC2)CC1"
486

Look up and state reported area under concentration-response curve for "COc1nnc2ccc(N3CCC(c4ccc(OCCN5CCN(C)C(=O)[C@H]5C)cc4)CC3)nn12"
449

Others:
Output area under concentration-response curve of "NC(=O)Nc1sc(-c2ccc(F)cc2)cc1C(N)=O"
559

Tell me measured area under concentration-response curve for "CC(C)OC(=O)/C1=C/N(CC(C)(C)C2=C1[NH]C3=CC=CC=C23)C(=O)C4=CC=C(F)C(=C4)F" please.
555

Kindly indicate its recorded area under concentration-response curve. Item: "Cc1ccc([S+](=O)([O-])Cc2nc(-c3ccc(C(=O)NCc4cccnc4)cc3)oc2C)cc1"
402

Look up and state reported area under concentration-response curve for CC(C)(C)NCC(O)c1ccc(O)c(CO)c1 (stereo unspecified)
598

Answer with the recorded area under concentration-response curve for the molecule listed here: "OCCC#Cc1nc(-c2ccc(F)cc2)c(-c2ccncc2)n1CCCc1ccccc1"
536

Could you please provide reported area under concentration-response curve for "CC[S+](=O)([O-])Nc1ccc2c(c1)/C(=C(/Nc1ccc(CN3CCCCC3)cc1)c1ccccc1)C(=O)N2" ? Thanks!
425

Fill in reported area under concentration-response curve for this entry: "C[C@H]1COC2=C3N1\C=C(C(O)=O)/C(=O)C3=CC(=C2N4CCN(C)CC4)F"
650

Name the recorded area under concentration-response curve of the molecule listed here: "CC(=O)Nc1cc(Oc2ccc3c(nc(Nc4ccc(F)cc4F)n3C)c2C)ccn1"
544

Supply measured area under concentration-response curve of "O=C(NCc1ccccc1)c1csc(Nc2ccncn2)n1" in your reply.
501

Annotate the molecule CCC(C)SSc1ncc[nH]1 (stereo unspecified) with its measured area under concentration-response curve.
507

Kindly indicate its recorded area under concentration-response curve. Item: "C[C@H]([C@H]1C\C(=C(CO)/C(=O)O1)C)[C@H]2CC[C@H]3[C@@H]4C[C@H]5O[C@]56[C@@H](O)\C=C/C(=O)[C@]6(C)[C@H]4CC[C@]23C"
393

Name the recorded area under concentration-response curve of the item "CC(C)(C)NC(=O)Nc1cccc(Nc2ncc(F)c(NC(C)(C)CO)n2)c1" in your answer.
652

Consider the molecule "C=C(C)[C@@H]1CCC(C)=C[C@H]1c1c(O)cc(CCCCC)cc1O" . State its measured area under concentration-response curve.
489

Quick one: give measured area under concentration-response curve for "O=C(Oc1ccc([N+](=O)[O-])cc1)N1CCN(Cc2cccc(Oc3ccccc3)c2)CC1"
556

Give reported area under concentration-response curve value for "CC[S+](=O)([O-])N1CCC([C@@H](C)n2c(C)c(/C(O)=N/Cc3c(OC)cc(C)nc3O)c3ccccc32)CC1"
605

Indicate its recorded area under concentration-response curve; the molecule in question is "COC1=CC2=C(C=C1CC3=C(F)C(=CC=C3)Cl)C(=O)\C(=C/N2[C@H](CO)C(C)C)C(O)=O"
528

Assign area under concentration-response curve to the following record: "CC1(C)CCC(C)(C)c2cc(NC(=O)c3ccc(C(=O)O)cc3)ccc21"
495

// Input: "CC(=O)c1cnc2ccc(-c3cc(Cl)c(O)c(Cl)c3)nc2c1N[C@H]1CC[C@H](CN(C)C)CC1" . Output its area under concentration-response curve only.
433

Tell me area under concentration-response curve reported for "COc1ncnc(N[S+](=O)([O-])c2ccc(N)cc2)c1OC"
604

---

Tested on: CU-ACC2
Assay: area under concentration-response curve (viability) (AUC (a.u.)); higher = less active
Settings: 48 h
area under concentration-response curve reference
Field format: numeric only.

# count of solved cases: 7
Lab note: CU-ACC2 assay, enter area under concentration-response curve for "CC(C)N(CCCNC(=O)Nc1ccc(C(C)(C)C)cc1)C[C@H]1O[C@@H](n2cc(Br)c3c(N)ncnc32)[C@H](O)[C@@H]1O" here
506

Provide area under concentration-response curve, system CU-ACC2, entry "Cn1ncc2cc(-c3cnc(N)c(Cl)c3N3CCC4(CCNC4=O)CC3)ccc21"
484

Enter recorded area under concentration-response curve with CU-ACC2 for "C[C@@H](C(=O)Nc1ccc(Cl)cc1)[C@H]1CC[C@@H](c2ccnc3ccc(F)cc32)CC1" here.
626

Fill in area under concentration-response curve for "C[C@@H]1CC[C@H]2[C@@H](C)C(=O)O[C@@H]3O[C@@]4(C)CC[C@@H]1[C@]32OO4" tested with CU-ACC2.
604

Tell me its area under concentration-response curve on CU-ACC2: "[O-][S+]1(=O)/N=C(/NC2=CC(=CC=C2)NC(=O)CCl)C3=CC=CC=C13"
557

Give CU-ACC2 area under concentration-response curve for the following molecule: O=C([O-])C(O)Cc1ccc(O)c(O)c1 (stereo not drawn)
589

Tell me its area under concentration-response curve on CU-ACC2: "CCCCCOC(=O)NC\1=N\C(=O)N(\C=C1F)[C@@H]2O[C@H](C)[C@@H](O)[C@H]2O"
606

We now examine a further molecule.
Output reported area under concentration-response curve of the molecule "O=C(NCc1ccc([S+](=O)([O-])c2cccc(C(F)(F)F)c2)cc1)c1cnc2[nH]ncc2c1" on CU-ACC2.
362

---

molecules and their reported AC50 viability
Test system: NCI-H295R
Test: AC50 viability; higher = less potent
Conditions: 48 h
Express it in µM; write the number only.

Name the recorded AC50 viability of the molecule listed here: "Nc1ccc(C(=O)c2cc3c(ccc4ccccc43)[nH]2)cc1"
12.1

Give the reported value of AC50 viability for this record: "ClC1=CC=C(CCCOC/2=N/NC(=O)C(=C2NCC3=CN=CC=C3)/Br)C=C1"
10.5

For the molecule "CCN1CCN(Cc2ccc(NC(=O)c3ccc(C)c(/C=C/c4cnc5[nH]ccc5c4OC)c3)cc2C(F)(F)F)CC1" , give its measured AC50 viability value.
7.42

More entries:
Consider the molecule "CC(C)(O)CC(=O)NCCn1ccc2ncnc(Nc3ccc(Oc4cccc(C(F)(F)F)c4)c(Cl)c3)c21" . State its measured AC50 viability.
20.9

Item "Cc1ccc(-n2nc(C(C)(C)C)cc2N/C(O)=N/Cc2cc(F)ccc2Oc2ccc3c(cnn3CCO)c2)cc1" : provide AC50 viability
33.2

Please give measured AC50 viability of the following entry: "Cc1n[nH]c2ccc(-c3cncc(OC[C@@H](N)Cc4c[nH]c5ccccc45)c3)cc12"
2.95

Provide AC50 viability value for the following molecule: "CCN(CC)CCNC(=O)c1c(C)[nH]c(/C=C2/C(=O)Nc3ccc(-c4csc(-c5ccccc5)n4)cc32)c1C"
7.42

Look up AC50 viability of "Cc1ccc2nc(NCCN)c3ncc(C)n3c2c1" and report it.
14.8

Output measured AC50 viability for this item: "Cc1ccc(-c2cc(C(F)(F)F)nn2-c2ccc([S+](N)(=O)[O-])cc2)cc1"
9.34

Indicate its recorded AC50 viability; the molecule in question is "CC(C)Oc1ccc(C(=O)N[C@H](CNC(=O)CN(C)C)Cc2ccc(-c3cn4cccc([C@H](C)O)c4n3)cc2)cc1Cl"
13.2

Name the recorded AC50 viability of the item "O=C(Nc1cc(C(F)(F)F)cc(C(F)(F)F)c1)c1cc(Cl)ccc1O" in your answer.
2.95

Indicate its recorded AC50 viability; the molecule in question is "O=C(/C=C/c1ccc2ccc(C(F)(F)F)cc2n1)c1ccncc1"
3.72

Identify measured AC50 viability corresponding to "CCOC(=O)[C@@H](N)Cc1ccc(-c2cc(O[C@H](c3ccc(Cl)cc3-n3ccc(C)n3)C(F)(F)F)nc(N)n2)cc1"
20.9

Identify AC50 viability associated with the molecule "CC(=O)O/N=C1\C(=O)N(Cc2cc(Cl)ccc2Cl)c2ccc(Cl)cc21"
13.2

Using the record for "Cc1ccc(NC(=O)c2ccc(CN3CCNCC3)cc2)cc1Nc1nccc(-c2cccnc2)n1" , state its measured AC50 viability.
26.3

Return AC50 viability for the following molecule: "O=C(/C=C/c1cccc([S+](=O)([O-])Nc2ccccc2)c1)NO"
3.72

Fill in AC50 viability for record "COC(=O)[C@]12CCC(C)(C)C[C@H]1[C@H]3C(=O)\C=C\4[C@@](C)(CC[C@H]5C(C)(C)C(=O)\C(=C/[C@]45C)C#N)[C@]3(C)CC2"
13.2

Give the reported value of AC50 viability for this record: COC(=O)Nc1nc2cc([S+]([O-])c3ccccc3)ccc2[nH]1 (configuration not stated)
11.8

Recall and state the measured AC50 viability for "C[C@@H]1O[C@@H](O[C@H]2C[C@@H](O)[C@]3(CO)[C@H]4[C@H](O)C[C@]5(C)[C@H](CC[C@]5(O)[C@@H]4CC[C@]3(O)C2)C/6=C/C(=O)OC6)[C@H](O)[C@H](O)[C@H]1O" .
0.0934

Tell us which AC50 viability value is on record for "CCNC(=O)C[C@@H]1\N=C(C2=CC=C(Cl)C=C2)/C3=C(C=CC(=C3)OC)[N]4C(=NN=C14)C"
8.33

Assign AC50 viability to the following record: "Nc1n[n+]([O-])c2ccccc2[n+]1[O-]"
20.9
